# target.or.test.system: T1, cynomolgus TIM-3 on isolated cyno CD14+ monocytes (cynomolgus monkey, UniProt A0A2K5U3G7 22-294)
# T1 construct: whole, on cells; also called cyno monocytes expressing TIM-3
# T1 sequence: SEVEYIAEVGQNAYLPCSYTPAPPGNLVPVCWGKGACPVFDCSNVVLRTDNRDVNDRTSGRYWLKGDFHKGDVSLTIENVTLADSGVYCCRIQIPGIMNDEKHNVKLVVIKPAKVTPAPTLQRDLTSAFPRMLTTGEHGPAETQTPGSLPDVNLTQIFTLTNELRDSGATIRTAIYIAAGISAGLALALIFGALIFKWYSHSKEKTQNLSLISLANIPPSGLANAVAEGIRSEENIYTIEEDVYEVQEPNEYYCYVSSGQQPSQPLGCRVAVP
# procedure.text: FACS, cyno CD14+ monocytes, cyno2 (17435M)
measurement.label: Specific Binding [MFI] (MFI)
Give just the numeric value; MFI need not be written.

Worked cases, Specific Binding [MFI] given:
[[record]]
binder = "anti-TIM3 antibody Tim3_0021 (antibody, V domains shown, Mouse monoclonal from hybridoma) VH: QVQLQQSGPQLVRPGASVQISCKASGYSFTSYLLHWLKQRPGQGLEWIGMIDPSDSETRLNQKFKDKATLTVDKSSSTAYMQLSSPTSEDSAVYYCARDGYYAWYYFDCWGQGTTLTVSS VL: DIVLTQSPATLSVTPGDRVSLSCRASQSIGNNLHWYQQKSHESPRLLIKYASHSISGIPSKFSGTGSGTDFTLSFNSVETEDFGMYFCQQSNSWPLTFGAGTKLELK"
unit_tag = "MFI"
measured_number = 473

[[record]]
binder = "anti-TIM3 antibody Tim3_0033 (antibody, V domains shown, Mouse monoclonal from hybridoma) VH: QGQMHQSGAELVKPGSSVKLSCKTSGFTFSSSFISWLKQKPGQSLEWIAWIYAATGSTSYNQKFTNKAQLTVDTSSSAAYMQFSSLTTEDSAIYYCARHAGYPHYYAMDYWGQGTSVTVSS VL: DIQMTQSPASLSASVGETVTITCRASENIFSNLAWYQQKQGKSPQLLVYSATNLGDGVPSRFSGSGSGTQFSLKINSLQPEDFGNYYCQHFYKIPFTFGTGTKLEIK"
unit_tag = "MFI"
measured_number = 81


IN: What value of measured Specific Binding [MFI] is listed for anti-TIM3 antibody Tim3_0022 (antibody, V domains shown, Mouse monoclonal from hybridoma; also called <TIM-3> Ab(022)) VH: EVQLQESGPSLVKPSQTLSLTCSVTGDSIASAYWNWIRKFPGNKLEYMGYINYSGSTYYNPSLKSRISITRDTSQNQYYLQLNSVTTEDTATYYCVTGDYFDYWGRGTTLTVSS VL: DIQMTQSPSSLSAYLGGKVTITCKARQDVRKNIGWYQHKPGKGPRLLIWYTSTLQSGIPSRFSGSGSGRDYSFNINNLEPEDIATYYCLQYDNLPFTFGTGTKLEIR ?
OUT: 134
